Each recorded value in this set is attributed to ChEMBL document CHEMBL1123279.

# measurementProtocol: Partition coefficient (logD7.4)
# Format: physicochemical
# testConditions: octanol/water, pH 7.4
observedProperty: logD

Known logD results, listed for orientation:
>  <compound>
O=C(NCCNCC(O)COc1ccc(-c2ncc[nH]2)cc1)Nc1ccccc1 (stereo unspecified)

>  <logD>
0.778

$$$$
>  <compound>
CCOCCNCC(O)COc1ccc(-c2nc(-c3cccs3)c[nH]2)cc1 (stereo unspecified)

>  <logD>
1.78

$$$$
>  <compound>
CCCNCC(O)COc1ccc(-c2nc(-c3cccs3)c[nH]2)cc1 (stereo unspecified)

>  <logD>
1.41

$$$$

I: COCCc1c[nH]c(-c2ccc(OCC(O)CNCCc3ccc(OC)c(OC)c3)cc2)n1 (stereo unspecified)
II: Cc1c[nH]c(Cc2ccc(OCC(O)CNC(C)(C)C)cc2)n1 (stereo unspecified)
Hi, I'm comparing two records. Which one has the lower logD, I or II ? Choose, then provide that item's label.
II

P: COc1ccc(CCNCC(O)COc2ccc(-c3nc(CN4CCOCC4)c[nH]3)cc2)cc1OC (stereo unspecified)
Q: COc1ccc(CCNCC(O)COc2ccc(-c3nc(Cl)c[nH]3)cc2)cc1OC (stereo unspecified)
Kindly compare P with Q and tell me which has the lower logD figure. // return label of chosen record
P
(P: 0.215, Q: 1.61)

* * *

# measurementProtocol: Dissociation constant (pKa)
# Type: physicochemical
observedProperty: pKa

a: COCc1[nH]c(-c2ccc(OCC(O)CNCCc3ccc(OC)c(OC)c3)cc2)nc1C (stereo not given)
b: COc1ccc(CCNCC(O)COc2ccc(-c3nc(Br)c[nH]3)cc2Cl)cc1OC (stereo not given)
Of the two listed items, which has the higher pKa? First: a Second: b Record your answer as the label of the chosen record.
a
(a: 4.92, b: 3.3)

P: COc1ccc(CCNCC(O)COc2ccc(Cc3nc(C)c[nH]3)cc2)cc1OC (stereo not given)
Q: COc1ccc(CCNCC(O)COc2ccc(-c3nc(C)c(Cl)[nH]3)cc2)cc1OC (stereo not given)
Could you check which of P and Q has a smaller value for pKa? Mark your answer with the label of the selected entry.
Q
(Q: 3.62, P: 7.01)

I: COc1ccc(CCNCC(O)COc2ccc(-c3nc(C)c[nH]3)cc2OC)cc1OC (stereo not given)
II: COc1ccc(CCNC[C@H](O)COc2ccc(-c3nc(C(C)=O)c[nH]3)cc2)cc1OC
From the items above, decide which of I and II has the lower pKa reading. Please indicate the selected item by its label.
II
(II: 3.6, I: 6.35)

P: COc1ccc(CCNCC(O)COc2ccc(CCc3nc(-c4cccs4)c[nH]3)cc2)cc1OC (stereo not given)
Q: COc1ccc(CCNCC(O)COc2ccc(-c3nc(C(N)=O)c[nH]3)cc2)cc1OC (stereo not given)
Please tell me which of the two, P or Q , has the higher reported pKa value. # reply format: chosen label
P

A: CCCNCC(O)COc1ccc(-c2nc(-c3cccs3)c[nH]2)cc1 (stereo not given)
B: COc1ccc(CCNCC(O)COc2ccc(-c3ncco3)cc2)cc1OC (stereo not given)
// which entry reports the smaller pKa, A or B ? Mark your answer with the label of the selected entry.
A
(A: 4.79, B: 8.4)

I: COc1ccc(CCNCC(O)COc2ccc(OCc3ncc[nH]3)cc2)cc1OC (stereo not given)
II: COc1ccc(CCNCC(O)COc2ccc(-c3nc(Cl)c[nH]3)cc2)cc1OC (stereo not given)
Please choose the item with the lower pKa value from this pair: I and II Refer to your chosen item by its label in the answer.
II

A: COc1ccc(CCNCC(O)COc2ccc(-c3nc(C)c[nH]3)cc2Br)cc1OC (stereo not given)
B: COc1ccc(CCNCC(O)COc2ccc(-c3nc(Br)c[nH]3)cc2)cc1OC (stereo not given)
Select the item with the higher value of pKa from the options A and B listed. Output the label that corresponds to your choice.
A

I: O=C(NCCNCC(O)COc1ccc(-c2ncc[nH]2)cc1)Nc1ccccc1 (stereo not given)
II: CCCCNC(=O)NCCNCC(O)COc1ccc(-c2nc(C)c[nH]2)cc1 (stereo not given)
Between I and II , which one shows the larger pKa value? The response must carry the label of the picked entry.
I
(I: 5.75, II: 3.6)
